All values here come from paper PMC4415393.

- assay-system: PVA-nitrate immobilized laccase (Cyathus bulleri)
- Sequence (A8W7J6 17-513): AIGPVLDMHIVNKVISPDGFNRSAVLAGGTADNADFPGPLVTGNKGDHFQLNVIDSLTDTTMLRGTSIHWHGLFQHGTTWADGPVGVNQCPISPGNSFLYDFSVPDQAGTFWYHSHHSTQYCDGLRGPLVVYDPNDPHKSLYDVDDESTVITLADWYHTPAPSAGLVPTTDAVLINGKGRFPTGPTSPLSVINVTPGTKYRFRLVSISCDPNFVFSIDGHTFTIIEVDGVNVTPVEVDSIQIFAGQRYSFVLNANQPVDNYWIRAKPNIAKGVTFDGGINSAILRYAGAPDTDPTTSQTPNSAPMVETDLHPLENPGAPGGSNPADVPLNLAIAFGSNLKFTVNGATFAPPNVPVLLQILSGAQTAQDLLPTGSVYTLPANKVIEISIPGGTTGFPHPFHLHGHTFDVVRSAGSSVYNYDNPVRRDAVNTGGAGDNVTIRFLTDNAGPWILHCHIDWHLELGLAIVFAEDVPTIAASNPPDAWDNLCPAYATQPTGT
pIC50: −log10 of the molar value.

{"compound": "[N-]=[N+]=[N-] [sodium azide]", "pIC50": 5.22}
